The origin of these recorded values is patent US20180228158A1.

- Test system: soybean cyst nematode (SCN)
- protocol-summary: Field trial: counts of soybean cyst nematode (SCN) eggs
- Format: in vivo
- run-parameters: soybean seed treatment 1 mg/seed, SCN eggs
Each entry below carries its reported Mean RF.

Req: What Mean RF value was documented for this compound, Clc1ccc(-c2noc(-c3ccco3)n2)cc1 ?
Resp: 4.325

Req: For the compound shown here, Cc1cc(Cl)ccc1-c1noc(-c2ccco2)n1 , give the reported Mean RF.
Resp: 1.625

Req: Endpoint output: Mean RF of c1ccc(-c2noc(-c3cccs3)n2)cc1 . Value?
Resp: 6.425

Req: Suppose we examine the compound CNC(=O)O/N=C(\SC)C(=O)N(C)C [Oxamyl, oxamyl, reference compound] ; what Mean RF value has been reported?
Resp: 6.65

* * *

- Test system: soybean cyst nematode (SCN)
- protocol-summary: Field trial: counts of soybean cyst nematode (SCN) eggs
- Assay type: in vivo
- run-parameters: soybean seed treatment 1 mg/seed, SCN egg count in fall
- Experimental: A field trial was conducted to determine the efficacy of compounds as described herein against soybean sudden death syndrome. Soybean seeds were planted at the start of the spring growing season in a location where fungi of the genus Fusarium were endemic. Nothing special was done to encourage growth of the fungus or development of the SDS disease. Compounds listed in Table 1 below were used to treat soybean seeds prior to planting. […]
parameter: Fall Eggs/100 cc (eggs/100 cc)
Write the answer as a number in eggs/100 cc, unit excluded.

INSERT INTO assay_data (molecule, parameter, obs_value) VALUES
  ('c1ccc(-c2noc(-c3cccs3)n2)cc1 [DC1822]', 'Fall Eggs/100 cc', 2100),
  ('Clc1ccc(-c2noc(-c3ccco3)n2)cc1 [DC5523]', 'Fall Eggs/100 cc', 1725),
  ('CNC(=O)O/N=C(\SC)C(=O)N(C)C [Oxamyl, oxamyl, reference compound]', 'Fall Eggs/100 cc', 3075);

# input for lookup
Req: Sample Cc1cc(Cl)ccc1-c1noc(-c2ccco2)n1 [DC5823] — what was its Fall Eggs/100 cc?
Resp: 1100
